Molecular target: T1, erythropoietin receptor, human recombinant (NSO cells) (human, UniProt P19235 25-250, limits assumed)
T1 construct: also called EPOR; EPO receptor
T1 sequence (looked up): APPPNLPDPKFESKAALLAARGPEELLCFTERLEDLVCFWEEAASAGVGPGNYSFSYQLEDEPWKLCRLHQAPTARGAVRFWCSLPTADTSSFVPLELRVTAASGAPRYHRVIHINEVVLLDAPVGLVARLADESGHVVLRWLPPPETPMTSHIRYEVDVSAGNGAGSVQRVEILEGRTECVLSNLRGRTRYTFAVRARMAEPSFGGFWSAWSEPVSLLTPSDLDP
Assay: radioligand binding, displacement of [125I]EPO
Where no end group is shown, it is not given here.
result type: IC50 (nM)
# output: bare number, implied unit nM

Given NYLCRMGPITWVCKP (not fully specified; cysteine pairing not given here, Structure only as drawing CHEM-US-00005; also called compound 003; Control 2: AC-0005-003) [AC-0005-003] , state its recorded IC50. 164
